- Test system: U2OS
- assay-summary: Multiplex assay against U2OS
- Assay type: toxicity, cell-based
- setup-conditions: human, 12 h, 10 µM, compound concentration 10 uM, replicate 2
measured-attribute: Population Tubulin-Different-Phenotype (%)
The reply should contain only the number, in %.

Known results for compounds:
smiles-entry: CC[C@@H]1C(=O)N(C)c2cnc(Nc3ccc(C(=O)NC4CCN(C)CC4)cc3OC)nc2N1C1CCCC1
unit-descriptor: %
recorded-number: 100

smiles-entry: Cc1ccc(S(=O)(=O)NC2c3ccccc3Oc3ccccc32)cc1
unit-descriptor: %
recorded-number: 50

# context switch: different compound, same Population Tubulin-Different-Phenotype (%)
Q: # get_value(readout='Population Tubulin-Different-Phenotype (%)', item= `NC(=O)c1ccc2nc(-c3ccc(C4(N)CCC4)cc3)c(-c3ccccc3)n2n1` )
A: 18

====

- Tested on: HEK-293T
- assay-summary: Multiplex assay against HEK293T
- Assay type: toxicity, cell-based
- setup-conditions: human, 24 h, 1 µM, compound concentration 1 uM, replicate 1
Quick rule for you: Population Healthy Nuclei (%) at 40% or higher means Satisfied, lower means Not satisfied.

smiles-entry: CC[C@@H]1C(=O)N(C)c2cnc(Nc3ccc(C(=O)NC4CCN(C)CC4)cc3OC)nc2N1C1CCCC1
label-class: Satisfied

smiles-entry: C=CC(=O)Nc1cc(-n2c(=O)ccc3cnc4ccc(-c5ccc(NS(C)(=O)=O)cc5)cc4c32)ccc1C
label-class: Not satisfied

smiles-entry: Cc1c(P(=S)(c2ccccc2)c2ccccc2)n2ccccc2[n+]1C/C=C/c1ccccc1.[Br-]
label-class: Not satisfied

smiles-entry: CC[C@H](Nc1ncnc2[nH]cnc12)c1nc2cccc(F)c2c(=O)n1-c1ccccc1
label-class: Satisfied

smiles-entry: Cc1c(Nc2ccc(S(=O)(=O)N3CCN(C)CC3)cc2F)nc2ccc(-c3cnn(C4CC4)c3)cn2c1=O
label-class: Satisfied

Q: Is reported Population Healthy Nuclei (%) greater than or equal to 40% here: `CCCc1cc(C)[nH]c(=O)c1CNC(=O)c1cc(-c2ccc(N3CCN(C(C)C)CC3)nc2)cc2c1cnn2C(C)C`
A: Not satisfied

Q: Another compound to look at: `CCOc1ccn(-c2ccc(F)cc2)c(=O)c1C(=O)Nc1ccc(Oc2ccnc(N)c2Cl)c(F)c1`
A: Satisfied

====

- Test system: HEK-293T
- assay-summary: Multiplex assay against HEK293T
- Assay type: toxicity, cell-based
- setup-conditions: human, 48 h, 10 µM, compound concentration 10 uM, replicate 2
Hi! Just check whether Population Normal (%) is below 90%. Below gives Met, equal or above gives Not met.

Take a look at these entries with their results.
compound: CN1C(=O)[C@@H](NC(=O)c2cc3ccccc3[nH]2)N=C(c2ccccc2)c2ccccc21 [DEVAZEPIDE]
label-class: Not met

compound: CCCCCNC(=N)N/N=C/c1c[nH]c2ccc(OC)cc12.O=C(O)/C=C\C(=O)O [TEGASEROD MALEATE]
label-class: Not met

compound: Cl.NC[C@@H]1O[C@H](C23CC4CC(CC(C4)C2)C3)Cc2c1ccc(O)c2O
label-class: Met

compound: Cc1c(P(=S)(c2ccccc2)c2ccccc2)n2ccccc2[n+]1C/C=C/c1ccccc1.[Br-]
label-class: Met

compound: C=CC(=O)Nc1cc(-n2c(=O)ccc3cnc4ccc(-c5ccc(NS(C)(=O)=O)cc5)cc4c32)ccc1C
label-class: Not met

# evaluate next
Q: Dear colleague, could you confirm whether Population Normal (%) of `c1ccc(-c2oc3ncnc(NC[C@@H]4CCCO4)c3c2-c2ccccc2)cc1` falls below 90%? Thanks.
A: Not met

====

- Test system: HEK-293T
- assay-summary: Incucyte cell viability with HEK293T; also: filed as whole numbers so only -1 and 0 and 1 occur
- Assay type: toxicity, cell-based
- setup-conditions: human, 0 h, 10 µM, compound concentration 10 uM, replicate number 1, timepoint 0 hours
measured-attribute: Growth Rate
// no unit string in output, number only

molecule: COc1ccc2c(c1)O[C@H](c1ccc(OC)c(OC)c1)C[C@@H]2NC(=O)C1(c2ccc3c(c2)OC(F)(F)O3)CC1
Growth Rate: 1

molecule: CCCCN(Cc1ccccc1)C(=O)c1ccc(S(=O)(=O)Nc2ccccc2)cc1
Growth Rate: 0

molecule: C[C@H]1C[C@H]2[C@@H]3CCC4=CC(=O)C=C[C@]4(C)[C@@]3(Cl)[C@@H](O)C[C@]2(C)[C@@]1(O)C(=O)CO
Growth Rate: 0

molecule: Cc1c(Nc2ccc(S(=O)(=O)N3CCN(C)CC3)cc2F)nc2ccc(-c3cnn(C4CC4)c3)cn2c1=O
Growth Rate: 1

molecule: CC1=C2C[C@H]3[C@@H](CC=C4C[C@@H](O)CC[C@@]43C)[C@@H]2CC[C@]12O[C@@H]1C[C@H](C)CN[C@H]1[C@H]2C
Growth Rate: 0

Q: # get_value(readout='Growth Rate', item= `CCOc1ccn(-c2ccc(F)cc2)c(=O)c1C(=O)Nc1ccc(Oc2ccnc(N)c2Cl)c(F)c1` )
A: 1

Q: Another molecule to look at: `CCOC(=O)c1ncn2c1CN(C)C(=O)c1cc(F)ccc1-2`
A: 0

Q: Another molecule to look at: CN(CCOc1ccc(CC2SC(=O)NC2=O)cc1)c1ccccn1 (stereo unspecified)
A: 1

Q: Another molecule to look at: CC(Cc1ccc(O)c(O)c1)C(C)Cc1ccc(O)c(O)c1 (stereo unspecified) [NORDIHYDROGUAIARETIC ACID]
A: 1

Q: Another molecule to look at: `NS(=O)(=O)c1cc(NC(=O)Cc2ccccc2)ccc1Oc1cccc(Cl)c1`
A: 0

Q: Another molecule to look at: CC(C)(N)C(=O)N[C@H](COCc1ccccc1)C(=O)N1CCC2(CC1)CN(S(C)(=O)=O)c1ccccc12.CS(=O)(=O)O [IBUTAMOREN MESYLATE]
A: 0

Q: Another molecule to look at: `O=C(N1CCS(=O)(=O)CC1)N1C[C@H](c2ccc(OC(F)(F)F)cc2)C[C@H](c2nc(C3CC3)no2)C1`
A: 0

Q: Another molecule to look at: `CCCCN(CC)c1nc(C)nc2c1c(C)cn2-c1c(C)cc(C)cc1C.Cl`
A: 0

Q: Another molecule to look at: CN1C(=O)[C@@H](NC(=O)c2cc3ccccc3[nH]2)N=C(c2ccccc2)c2ccccc21 [DEVAZEPIDE]
A: 0

Q: Another molecule to look at: `Cc1ccc(S(=O)(=O)NC2c3ccccc3Oc3ccccc32)cc1`
A: 0

Q: Another molecule to look at: `Cc1c(Nc2ccc(S(=O)(=O)N3CCN(C)CC3)cc2F)nc2ccc(Nc3cnn(C4CC4)c3)cn2c1=O`
A: 1

====

- Test system: U2OS
- assay-summary: Multiplex assay against U2OS
- Type: toxicity, cell-based
- setup-conditions: human, 12 h, 1 µM, compound concentration 1 uM, replicate 2
measured-attribute: Total Cell Count
// no unit string in output, number only

Q: # get_value(readout='Total Cell Count', item= `CC[C@@H]1C(=O)N(C)c2cnc(Nc3ccc(C(=O)NC4CCN(C)CC4)cc3OC)nc2N1C1CCCC1` )
A: 107

Q: Another compound to look at: `Cc1c(P(=S)(c2ccccc2)c2ccccc2)n2ccccc2[n+]1C/C=C/c1ccccc1.[Br-]`
A: 93

Q: Another compound to look at: `CC(/C=C1\SC(=S)N(CCCC(=O)Nc2ccc(C(=O)O)c(O)c2)C1=O)=C\c1ccccc1`
A: 65

====

- System: HEK-293T
- assay-summary: Multiplex assay against HEK293T
- Type: toxicity, cell-based
- setup-conditions: human, 12 h, 10 µM, compound concentration 10 uM, replicate 1
measured-attribute: Population Apoptotic (%)
The reply should contain only the number, in %.

Known results for compounds:
compound: CN(c1cc(C(F)(F)F)nc(OCCC(=O)O)n1)c1cccc2c1CCC2
measured-attribute: Population Apoptotic (%)
recorded-number: 37

compound: Cc1ccc(NC(=O)Nc2cc(C(F)(F)F)ccc2F)cc1Nc1ccc2c(c1)NC(=O)/C2=C\c1ccc[nH]1
measured-attribute: Population Apoptotic (%)
recorded-number: 14

compound: CCCCCNC(=N)N/N=C/c1c[nH]c2ccc(OC)cc12.O=C(O)/C=C\C(=O)O [TEGASEROD MALEATE]
measured-attribute: Population Apoptotic (%)
recorded-number: 51

compound: Cc1c(Nc2ccc(S(=O)(=O)N3CCN(C)CC3)cc2F)nc2ccc(Nc3cnn(C4CC4)c3)cn2c1=O
measured-attribute: Population Apoptotic (%)
recorded-number: 17

compound: Cc1c(P(=S)(c2ccccc2)c2ccccc2)n2ccccc2[n+]1C/C=C/c1ccccc1.[Br-]
measured-attribute: Population Apoptotic (%)
recorded-number: 34

compound: NC(=O)c1ccc2nc(-c3ccc(C4(N)CCC4)cc3)c(-c3ccccc3)n2n1 [BAY-1125976]
measured-attribute: Population Apoptotic (%)
recorded-number: 19

compound: C[C@@H](Oc1cc(-n2cnc3ccc(CN4CCN(C)CC4)cc32)sc1C(N)=O)c1ccccc1C(F)(F)F [GSK-461364]
measured-attribute: Population Apoptotic (%)
recorded-number: 80

# context switch: different compound, same Population Apoptotic (%)
Q: API: value(readout= Population Apoptotic (%), system= HEK-293T, query= `N#Cc1cccc(C(=O)Nc2cc(-c3ccccc3)nn2-c2ccccc2)c1` )
A: 73
